Data credit: patent US11844843

# Target Of Assay: T1, recombinant human TfR1 (transferrin receptor protein 1) (human, UniProt P02786 89-760)
# T1 construct: Recombinant protein in SPR and ELISA; they were assigned to this molecule; also called hTfR1; huTfR1
# T1 sequence (P02786 89-760 limits assumed): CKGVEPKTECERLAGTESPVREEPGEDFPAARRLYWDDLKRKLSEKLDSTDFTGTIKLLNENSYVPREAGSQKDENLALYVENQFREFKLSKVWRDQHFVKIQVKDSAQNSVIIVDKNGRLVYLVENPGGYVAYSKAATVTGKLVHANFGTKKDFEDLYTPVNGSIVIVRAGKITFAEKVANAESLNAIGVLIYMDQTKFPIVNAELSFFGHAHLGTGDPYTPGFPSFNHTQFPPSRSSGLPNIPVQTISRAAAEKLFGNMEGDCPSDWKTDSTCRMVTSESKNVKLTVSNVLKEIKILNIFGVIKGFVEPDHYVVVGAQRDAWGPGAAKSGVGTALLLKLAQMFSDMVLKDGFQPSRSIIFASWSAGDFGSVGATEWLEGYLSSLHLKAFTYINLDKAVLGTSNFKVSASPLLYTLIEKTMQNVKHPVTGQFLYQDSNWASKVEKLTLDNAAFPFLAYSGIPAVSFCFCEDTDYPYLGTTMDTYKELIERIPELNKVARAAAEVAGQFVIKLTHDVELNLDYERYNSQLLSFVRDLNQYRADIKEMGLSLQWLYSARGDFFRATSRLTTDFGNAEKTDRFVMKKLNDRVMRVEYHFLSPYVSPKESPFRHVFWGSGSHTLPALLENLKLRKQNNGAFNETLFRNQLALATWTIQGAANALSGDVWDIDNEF
# Run Description: kinetic analysis (Biacore), Table 7; TfR1 species not stated
Readout: Kd (nM)
Please give a number only; it is taken to be in nM.

Inquiry: Quick one: Kd of humanized anti-TfR Fab 5H12 VH5 (C33D)/Vκ4 (Fab, V domains shown, also called 5H12 (VH5-C33D/Vk4)) VH: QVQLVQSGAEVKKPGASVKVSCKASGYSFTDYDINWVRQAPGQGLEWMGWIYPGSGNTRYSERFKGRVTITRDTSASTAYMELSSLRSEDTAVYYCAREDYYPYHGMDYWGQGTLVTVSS VL: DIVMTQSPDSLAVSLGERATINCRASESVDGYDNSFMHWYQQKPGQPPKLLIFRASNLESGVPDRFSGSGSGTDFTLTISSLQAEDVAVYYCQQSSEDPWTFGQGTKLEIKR ?
Reply text: 0.991

Inquiry: Quick one: Kd of humanized anti-TfR Fab 5H12 VH5 (C33Y)/Vκ4 (Fab, V domains shown, also called 5H12 (VH5-C33Y/Vk4)) VH: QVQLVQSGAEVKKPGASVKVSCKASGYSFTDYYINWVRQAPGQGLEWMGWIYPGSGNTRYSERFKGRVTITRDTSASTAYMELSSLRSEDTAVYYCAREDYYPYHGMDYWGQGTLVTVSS VL: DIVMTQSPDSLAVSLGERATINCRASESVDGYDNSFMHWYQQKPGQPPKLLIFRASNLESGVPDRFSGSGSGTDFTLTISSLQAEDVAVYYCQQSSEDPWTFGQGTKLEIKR ?
Reply text: 0.626

Inquiry: Quick one: Kd of humanized anti-TfR Fab 3A4 VH3 (N54T)/Vκ4 (Fab, V domains shown, also called 3A4 (VH3-N54T/Vk4)) VH: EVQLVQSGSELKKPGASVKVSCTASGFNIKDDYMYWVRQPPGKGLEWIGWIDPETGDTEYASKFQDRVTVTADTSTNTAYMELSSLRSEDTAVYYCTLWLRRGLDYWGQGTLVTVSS VL: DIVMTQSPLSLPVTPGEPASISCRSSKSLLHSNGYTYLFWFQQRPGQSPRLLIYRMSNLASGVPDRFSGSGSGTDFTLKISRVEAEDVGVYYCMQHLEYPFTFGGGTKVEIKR ?
Reply text: 3.09
